Target: SLAP2 (Homo sapiens, UniProt Q9H6Q3)
Construct: made in house; host or cells: HEK293 (transient transfection), unpurified extract
Sequence (Q9H6Q3 whole entry): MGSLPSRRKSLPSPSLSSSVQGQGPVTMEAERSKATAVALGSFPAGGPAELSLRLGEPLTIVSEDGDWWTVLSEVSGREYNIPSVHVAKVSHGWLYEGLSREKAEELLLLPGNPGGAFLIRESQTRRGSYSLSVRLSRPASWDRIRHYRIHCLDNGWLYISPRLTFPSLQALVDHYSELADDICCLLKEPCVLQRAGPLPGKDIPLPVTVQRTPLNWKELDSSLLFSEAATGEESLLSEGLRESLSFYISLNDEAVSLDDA
Experiment: biochemical
Assay type: binding
Conditions: read-out: percent of DMSO vehicle control
Non-standard residues stand in square brackets, D forms with d. Residues, ends and D or L forms follow the SMILES beside them. *: point of attachment. pY = N[C@@H](Cc1ccc(OP(=O)(O)O)cc1)C(=O)O; Caffeoyl = O=C(/C=C/c1ccc(O)c(O)c1)*
Examples of compounds with documented remaining activity at 10 µM follow.
Answer with a number only, understood to be in %.

Reference set, count: 3
# compound, quantityName, observedValue
data = [
    ("CC[C@H](C)[C@H](NC(=O)[C@H](CCC(=O)O)NC(=O)[C@H](CCC(=O)O)NC(=O)[C@H](Cc1ccc(OP(=O)(O)O)cc1)NC(=O)/C=C/c1ccc(O)c(O)c1)C(=O)N[C@@H](CCC(=O)O)C(=O)O [Caffeic acid-pYEEIE] (Caffeoyl-[pY]EEIE-OH)", "remaining activity at 10 µM", 5.3),
    ("NC(=O)CC[C@H](NC(=O)[C@@H]1CC[C@@H]2CCN(C(=O)CCCCCC#Cc3cccc4c3CN(C3CCC(=O)NC3=O)C4=O)C[C@H](NC(=O)c3cc4cc(C(F)(F)P(=O)(O)O)ccc4[nH]3)C(=O)N21)C(=O)NC(c1ccccc1)c1ccccc1 (stereo partly shown)", "remaining activity at 10 µM", 95.7),
    ("CC(=O)N1CC[C@H]2CC[C@@H](C(=O)N[C@@H](CCC(N)=O)C(=O)NC(c3ccccc3)c3ccccc3)N2C(=O)[C@@H](NC(=O)c2cc3cc(C(F)(F)P(=O)(O)O)ccc3[nH]2)C1", "remaining activity at 10 µM", 121),
]

According to the records, this compound CC(=O)N[C@@H](Cc1ccc(CP(=O)(O)O)cc1)C(=O)NC1(C(=O)N[C@@H](CC(N)=O)C(=O)NCCCc2c(O)ccc3ccccc23)CCCCC1 displays remaining activity at 10 µM of 91.4

---

Target: SHIP2 (Homo sapiens, UniProt O15357)
Construct: made in house; host or cells: HEK293 (transient transfection), unpurified extract
Sequence (O15357 whole entry): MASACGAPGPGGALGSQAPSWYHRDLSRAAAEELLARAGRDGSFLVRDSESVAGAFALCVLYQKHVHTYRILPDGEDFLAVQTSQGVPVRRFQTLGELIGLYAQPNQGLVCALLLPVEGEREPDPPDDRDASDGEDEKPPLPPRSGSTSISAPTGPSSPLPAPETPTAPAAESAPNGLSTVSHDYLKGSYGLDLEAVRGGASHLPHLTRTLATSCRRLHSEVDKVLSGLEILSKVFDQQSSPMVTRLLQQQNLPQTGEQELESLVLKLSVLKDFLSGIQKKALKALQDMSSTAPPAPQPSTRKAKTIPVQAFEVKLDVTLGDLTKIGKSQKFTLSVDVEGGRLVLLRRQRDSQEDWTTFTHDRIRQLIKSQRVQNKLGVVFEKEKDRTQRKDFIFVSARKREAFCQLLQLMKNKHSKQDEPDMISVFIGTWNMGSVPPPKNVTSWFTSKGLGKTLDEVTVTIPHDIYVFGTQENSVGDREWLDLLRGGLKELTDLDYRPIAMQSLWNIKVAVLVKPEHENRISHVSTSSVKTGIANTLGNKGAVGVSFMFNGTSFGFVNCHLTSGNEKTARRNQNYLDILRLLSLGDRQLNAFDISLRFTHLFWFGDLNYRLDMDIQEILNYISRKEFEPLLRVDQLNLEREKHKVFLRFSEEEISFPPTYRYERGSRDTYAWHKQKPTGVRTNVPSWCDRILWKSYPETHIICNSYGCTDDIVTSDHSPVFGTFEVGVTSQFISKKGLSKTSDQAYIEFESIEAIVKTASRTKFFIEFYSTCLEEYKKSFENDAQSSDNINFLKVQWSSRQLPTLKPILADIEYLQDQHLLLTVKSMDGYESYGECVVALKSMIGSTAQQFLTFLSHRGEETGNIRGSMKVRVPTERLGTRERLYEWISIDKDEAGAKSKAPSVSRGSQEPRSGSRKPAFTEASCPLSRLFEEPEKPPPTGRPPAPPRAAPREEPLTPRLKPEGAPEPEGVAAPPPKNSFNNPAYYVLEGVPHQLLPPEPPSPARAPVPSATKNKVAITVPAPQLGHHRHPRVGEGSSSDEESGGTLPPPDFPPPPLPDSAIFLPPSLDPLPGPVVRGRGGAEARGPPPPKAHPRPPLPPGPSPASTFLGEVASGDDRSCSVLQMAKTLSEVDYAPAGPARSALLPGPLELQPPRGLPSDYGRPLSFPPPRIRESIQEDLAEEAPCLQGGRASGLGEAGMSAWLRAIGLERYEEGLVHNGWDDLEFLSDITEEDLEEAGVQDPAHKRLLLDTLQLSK
Experiment: biochemical
Assay type: binding
Details: read-out: percent of DMSO vehicle control
Non-standard residues stand in square brackets, D forms with d. Residues, ends and D or L forms follow the SMILES beside them. *: point of attachment. pY = N[C@@H](Cc1ccc(OP(=O)(O)O)cc1)C(=O)O; Caffeoyl = O=C(/C=C/c1ccc(O)c(O)c1)*
quantityName: remaining activity at 10 µM (%)
# output: bare number, implied unit %

Check out these entries, answers already filled in.
# molecule, quantityName, uom, observedValue
rows = [
    ("CC(=O)N1CC[C@H]2CC[C@@H](C(=O)N[C@@H](CCC(N)=O)C(=O)NC(c3ccccc3)c3ccccc3)N2C(=O)[C@@H](NC(=O)c2cc3cc(C(F)(F)P(=O)(O)O)ccc3[nH]2)C1", "remaining activity at 10 µM", "%", 121),
    ("NC(=O)CC[C@H](NC(=O)[C@@H]1CC[C@@H]2CCN(C(=O)CCCCCC#Cc3cccc4c3CN(C3CCC(=O)NC3=O)C4=O)C[C@H](NC(=O)c3cc4cc(C(F)(F)P(=O)(O)O)ccc4[nH]3)C(=O)N21)C(=O)NC(c1ccccc1)c1ccccc1 (stereo partly shown)", "remaining activity at 10 µM", "%", 67.3),
    ("CC(=O)N[C@@H](Cc1ccc(CP(=O)(O)O)cc1)C(=O)NC1(C(=O)N[C@@H](CC(N)=O)C(=O)NCCCc2c(O)ccc3ccccc23)CCCCC1", "remaining activity at 10 µM", "%", 106),
]

The recorded remaining activity at 10 µM for CC[C@H](C)[C@H](NC(=O)[C@H](CCC(=O)O)NC(=O)[C@H](CCC(=O)O)NC(=O)[C@H](Cc1ccc(OP(=O)(O)O)cc1)NC(=O)/C=C/c1ccc(O)c(O)c1)C(=O)N[C@@H](CCC(=O)O)C(=O)O [Caffeic acid-pYEEIE] (Caffeoyl-[pY]EEIE-OH) is 0.2
